- Tested on: UO-31 renal
- Method description: NCI-60 one-dose screen, 48 h (100 = growth as untreated, 0 = no growth, -100 = all killed)
- Reported conditions: 10 µM unless noted
This is part of a sample that, as a whole, favours compounds with a hit. Of some 83,000 tested, about 20% had one in any assay.
# class 1 = growth below 40% (exclusive); class 0 = growth at/above 40%

q: A record lists "c1ccc(-c2c(-c3ccccc3)[n+](Cc3ccc4ccccc4c3)c(-c3ccccc3)n2Cc2ccc3ccccc3c2)cc1" . Is its growth below 40%?
a: class 1

q: Next up: "Cn1cc(-c2nn3cc(-c4ccncc4)nc3s2)c2cc(Cl)ccc21"
a: class 0

q: Next up: "CC[C@H](C)[C@H]1NC(=O)[C@@H]([C@H](O)C(C)C)NC(=O)[C@@H](C)N(C)C(=O)[C@H](C)N(C)C(=O)[C@H](CC(C)C)NC(=O)[C@H](CC(C)C)N(C)C(=O)[C@H](C)N(C)C1=O"
a: class 1

q: Next up: "COc1ccc(N)cc1C(=O)Nc1cccc(-c2cc(=O)c3c(OC)c(OC)c(OC)cc3o2)c1"
a: class 1

q: Next up: "CN(c1ccc(Cl)cc1)S(=O)(=O)c1ccc(-c2cnc(C3CC3)o2)cc1"
a: class 0

q: Next up: "CC(=O)c1sc(Nc2cccc(Nc3nc(C)c(C)s3)c2)nc1C"
a: class 1

q: Next up: "CCOC(=O)c1nn(-c2ccccc2)c(=O)c2c(N)c(C#N)c(-c3cccs3)cc12"
a: class 0

q: Next up: "COc1ccc(/C=N/Nc2nc(Nc3ccccc3)nc(Nc3ccc(S(N)(=O)=O)cc3)n2)cc1"
a: class 0

Data credit: PubChem BioAssay (NCI)
